target-system: Cellular tumor antigen p53 (Homo sapiens) (UniProt P04637)
Sequence (P04637 whole entry, looked up): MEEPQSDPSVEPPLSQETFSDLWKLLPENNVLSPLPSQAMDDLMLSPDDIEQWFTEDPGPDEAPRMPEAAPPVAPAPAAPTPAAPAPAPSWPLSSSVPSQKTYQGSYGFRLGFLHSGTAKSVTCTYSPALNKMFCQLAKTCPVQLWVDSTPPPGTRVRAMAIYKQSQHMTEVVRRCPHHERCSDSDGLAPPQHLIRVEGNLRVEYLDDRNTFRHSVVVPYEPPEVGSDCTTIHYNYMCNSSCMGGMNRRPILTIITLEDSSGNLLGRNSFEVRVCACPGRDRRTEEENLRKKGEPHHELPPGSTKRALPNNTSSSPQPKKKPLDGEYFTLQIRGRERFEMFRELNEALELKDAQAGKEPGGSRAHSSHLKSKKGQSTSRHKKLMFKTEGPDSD
experiment-notes: TOX21_p53_BLA_p3_ratio: Tox21 HCT-116 p53 Agonism Beta-lactamase Assay, Ratio, Phase 3 (AID 2283596)
Inconclusive results are not listed. Active and inactive are the calls of the source. The calls were made as follows: active = hit-call score of the fitted dose curve at least 0.9, where 1 is the maximum; inconclusive = response in the unintended direction; inactive = score below 0.9.
Response enum: 1.0 (active), 0.0 (inactive)

What outcome does the record of this test show for CCCCCCCCCCCCCCCCCC(=O)OC[C@@H](O)[C@H]1OC[C@H](O)[C@H]1O ?
0.0

Same lookup for CN1CCCCC1CCN1c2ccccc2Sc2ccc(S(C)=O)cc21 (stereo not given) , please.
0.0

Same lookup for CC(C)COCC(CN(Cc1ccccc1)c1ccccc1)N1CCCC1 (stereo not given) , please.
0.0

Same lookup for CC(S)C(=O)NCC(=O)O (stereo not given) , please.
0.0

Same lookup for Cc1occc1SSc1ccoc1C , please.
0.0

Same lookup for COCCOC(=O)C1=C(C)NC(C)=C(C(=O)OC/C=C/c2ccccc2)C1c1cccc([N+](=O)[O-])c1 (stereo not given) , please.
0.0

Same lookup for CCn1cc(C(=O)O)c(=O)c2cc(F)c(N3CCNCC3)cc21 , please.
0.0

Same lookup for O=C(CCBr)N1CCN(C(=O)CCBr)CC1 , please.
0.0

====

experiment-notes: TOX21_p53_BLA_p5_viability: Viability Assessment in the Tox21 HCT-116 p53 Agonism Beta-lactamase Assay, Phase 5 (AID 2283600)
Results filed as inconclusive are left out. The source made the active and inactive calls. How the source made its calls: active means hit-call score of the fitted dose curve at least 0.9, where 1 is the maximum; inconclusive means response in the unintended direction; inactive means score below 0.9.
Response enum: Yes for active, No for inactive

Reference set (4 entries):
{"compound": "CCCOC(=O)c1ccccc1", "class": "No"}
{"compound": "NCCN1CCOCC1", "class": "No"}
{"compound": "c1ccc(CCNc2nc(-c3ccccc3)cs2)cc1", "class": "No"}
{"compound": "O=C(O)c1cc2ccccc2c(Cc2c(O)c(C(=O)O)cc3ccccc23)c1O", "class": "No"}

What outcome does the record of this test show for CC(C)(Sc1cc(C(C)(C)C)c(O)c(C(C)(C)C)c1)Sc1cc(C(C)(C)C)c(O)c(C(C)(C)C)c1 ?
No

Same lookup for CC(=O)Oc1ccc(C2(c3ccc(OC(C)=O)cc3)C(=O)Nc3ccccc32)cc1 , please.
No

Same lookup for CCOC(=O)c1ncn2c1CN(C)C(=O)c1cc(F)ccc1-2 , please.
No

Same lookup for Sc1nc2ccccc2s1 , please.
Yes

Same lookup for COc1ccc(CCNC[C@H](O)c2ccc(O)cc2)cc1OC , please.
No

Same lookup for O=C1c2ccccc2C(=O)C1c1ccc(Br)cc1 , please.
No

Same lookup for Nc1nc(N)c2nc(-c3ccccc3)c(N)nc2n1 , please.
No

Same lookup for CC(O)COC(C)(C)C (configuration not stated) , please.
No

====

Read-out: Vascular cell adhesion molecule 1 (VCAM1), VCAM1 (gene 7412)
experiment-notes: BSK_hDFCGF_VCAM1: BioMAP Diversity Plus: hDFCGF Assay for Vascular cell adhesion molecule 1 (VCAM1) Biomarker Activity (AID 2283065)
conditions: primary human foreskin fibroblasts; actives raise or lower the signal
The source made the active and inactive calls. How the source made its calls: active means hit-call score of the fitted dose curve at least 0.9, where 1 is the maximum; inactive means score below 0.9.
Response enum: active, inactive

Reference set (4 entries):
{"compound": "CN(C)CCC(c1ccc(Cl)cc1)c1ccccn1 (stereo not given)", "class": "inactive"}
{"compound": "CCCCCCCCCC/C=C/C1CC(=O)OC1=O (stereo not given)", "class": "inactive"}
{"compound": "CCC[Si](OC(C)=O)(OC(C)=O)OC(C)=O", "class": "inactive"}
{"compound": "CCCCCCC(O)CCCCCCCCCCC(=O)OC (stereo not given)", "class": "inactive"}

What outcome does the record of this test show for CCCCCCCCCCCCCCCCCC[N+](C)(C)C ?
active

Same lookup for CC[N+](CC)(CC(=O)Nc1c(C)cccc1C)Cc1ccccc1 (tested in a mixture with another compound) , please.
inactive

Same lookup for COc1ccc(C(=O)c2ccccc2O)c(O)c1 , please.
inactive

Same lookup for CCC(C)=NO , please.
inactive

Same lookup for CN(C)c1ccc(C(c2ccccc2)c2ccc(N(C)C)cc2)cc1 , please.
inactive

Same lookup for COC(=O)/C=C\C(=O)OC , please.
inactive

Same lookup for Cc1c(C(N)=O)cc([N+](=O)[O-])cc1[N+](=O)[O-] , please.
inactive

Same lookup for CC(C)CC(=O)CC(C)CC(C)C (stereo not given) , please.
inactive

Same lookup for Cc1cccnc1 , please.
inactive

Same lookup for CCCCC(CC)COC(=O)C=Cc1ccc(OC)cc1 (stereo not given) , please.
inactive

Same lookup for COc1ccccc1Oc1c(NS(=O)(=O)c2ccc(C(C)(C)C)cc2)nc(-c2ncccn2)nc1OCCO , please.
inactive

====

experiment-notes: ATG_GLI_CIS: Attagene CIS-FACTORIAL HepG2 Assay for human Zinc Finger Protein GLI1 (AID 2282945)
conditions: HepG2, Attagene cis-factorial reporter mRNA, GLI element; actives raise or lower the signal
The source made the active and inactive calls. How the source made its calls: active means hit-call score of the fitted dose curve at least 0.9, where 1 is the maximum; inactive means score below 0.9.
Response enum: active, inactive

Reference set (3 entries):
{"molecule": "c1ccc(CNc2ncnc3nc[nH]c23)cc1", "class": "inactive"}
{"molecule": "CCCc1c(OCCCCc2nn[nH]n2)ccc(C(C)=O)c1O", "class": "inactive"}
{"molecule": "O=C(Oc1ccccc1)c1ccccc1", "class": "inactive"}

What outcome does the record of this test show for CC(O)(P(=O)(O)O)P(=O)(O)O ?
inactive

Same lookup for CCCCCCCC#N , please.
inactive

Same lookup for O=C1NC(=O)[C@@H]2CC=CC[C@H]12 , please.
inactive

Same lookup for CCCCCCC1CCC(=O)O1 (configuration not stated) , please.
inactive

Same lookup for N#CCN(CC#N)CCN(CC#N)CC#N , please.
inactive

Same lookup for Cc1cc(O)cc(C)c1Cl , please.
inactive

Same lookup for CC(C)CC(=O)CC(C)C , please.
inactive

====

experiment-notes: TOX21_p53_BLA_p5_viability: Viability Assessment in the Tox21 HCT-116 p53 Agonism Beta-lactamase Assay, Phase 5 (AID 2283600)
Inconclusive results are not listed. Calls of active or inactive are those of the source. The calls were made as follows: active = hit-call score of the fitted dose curve at least 0.9, where 1 is the maximum; inconclusive = response in the unintended direction; inactive = score below 0.9.
Response enum: active, inactive

Reference set (5 entries):
{"compound": "CO[C@H]1/C=C/O[C@@]2(C)Oc3c(C)c(O)c4c(O)c(c(/C=N/N5CCN(C6CCCC6)CC5)c(O)c4c3C2=O)NC(=O)/C(C)=C\\C=C\\[C@H](C)[C@H](O)[C@@H](C)[C@@H](O)[C@@H](C)[C@H](OC(C)=O)[C@@H]1C", "class": "active"}
{"compound": "COc1ccc(CNCC(O)COc2ccc3[nH]c(=O)ccc3c2)cc1OC (centres undefined)", "class": "inactive"}
{"compound": "Cc1ccccc1C(N)=O", "class": "inactive"}
{"compound": "[O-][N+](=Nc1ccccc1)c1ccccc1", "class": "inactive"}
{"compound": "CCNc1nc(NC(C)CC)nc(OC)n1 (centres undefined)", "class": "active"}

What outcome does the record of this test show for CC(C)CC(C)(N)C#N (centres undefined) ?
inactive

Same lookup for C/C(=C(\CCOC(=O)c1ccccc1)SS/C(CCOC(=O)c1ccccc1)=C(/C)N(C=O)Cc1cnc(C)nc1N)N(C=O)Cc1cnc(C)nc1N , please.
inactive

Same lookup for Nc1nnnn1-c1ccccc1 , please.
inactive

Same lookup for CCOc1ccccc1C(N)=O , please.
inactive

Same lookup for Cc1occc1SSc1ccoc1C , please.
inactive

Same lookup for COC(=O)/C=C\C(=O)OC , please.
inactive

Same lookup for CCc1cn([C@H]2C[C@H](O)[C@@H](CO)O2)c(=O)[nH]c1=O , please.
inactive

Same lookup for NCCCCCC(=O)O , please.
inactive

====

experiment-notes: TOX21_p53_BLA_p5_viability: Viability Assessment in the Tox21 HCT-116 p53 Agonism Beta-lactamase Assay, Phase 5 (AID 2283600)
Inconclusive results are not listed. The source made the active and inactive calls. Rule for the calls: active = hit-call score of the fitted dose curve at least 0.9, where 1 is the maximum; inconclusive = response in the unintended direction; inactive = score below 0.9.
Response enum: active, inactive

What outcome does the record of this test show for COC(=O)C1=C(C)NC(C)=C(C(=O)OCC(C)=O)C1c1ccccc1[N+](=O)[O-] (centres undefined) ?
inactive

====

System: SRY-box transcription factor 2 (SOX2) Protein Expression, Deisenroth Lab, SOX2 (gene 6657)
experiment-notes: CCTE_Deisenroth_DEVTOX-GLR_legacy_Sox2: (Legacy) CCTE's DevTox GLR-Endo Assay Evaluation of SRY-box transcription factor 2 (SOX2) Protein Expression, Deisenroth Lab (AID 2284346)
Active and inactive are the calls of the source. How the source made its calls: active means hit-call score of the fitted dose curve at least 0.9, where 1 is the maximum; inactive means score below 0.9.
measurement-kind: AC50

Observe how each entry below is paired with its result.
{"item-smiles": "Cc1nc2sccn2c(=O)c1CCN1CCC(=C(c2ccc(F)cc2)c2ccc(F)cc2)CC1", "AC50": "8.41 µM (active)"}
{"item-smiles": "CCN(CC)CCNC(=O)c1c(C)[nH]c(/C=C2\\C(=O)Nc3ccc(F)cc32)c1C", "AC50": "0.621 µM (active)"}
{"item-smiles": "COc1cc2c(Nc3ccc(Br)cc3F)ncnc2cc1OCC1CCN(C)CC1", "AC50": "7.85 µM (active)"}
{"item-smiles": "O=c1[nH]c(=O)n([C@H]2C[C@H](O)[C@@H](CO)O2)cc1Br", "AC50": "14.4 µM (active)"}
{"item-smiles": "O=C1Cc2cc(CCN3CCN(c4nsc5ccccc45)CC3)c(Cl)cc2N1", "AC50": "4.3 µM (active)"}

Fill in: AC50 of Cc1ccc(NC(=O)c2ccc(CN3CCN(C)CC3)cc2)cc1Nc1nccc(-c2cccnc2)n1 is ___
19.3 µM (active)

Same lookup for COc1cc2ncnc(Nc3ccc(F)c(Cl)c3)c2cc1OCCCN1CCOCC1 , please.
5.86 µM (active)
